System: Mycobacterium avium subsp. paratuberculosis
Assay: Antituberculosis activity against Mycobacterium paratuberculosis B236 isolated from bovine assessed as minimum drug level required for killing after 56 days by MGIT 960 susceptibility test
Assay type: functional
readout-name: Activity (µg/mL)
# value in µg/mL; strip the unit string

State its Activity on Mycobacterium avium subsp. paratuberculosis: O=C(O)c1cn(C2CC2)c2cc(N3CCNCC3)c(F)cc2c1=O
16

What do you get for CC[C@H]1OC(=O)[C@H](C)[C@@H](O[C@H]2C[C@@](C)(OC)[C@@H](O)[C@H](C)O2)[C@H](C)[C@@H](O[C@@H]2O[C@H](C)C[C@H](N(C)C)[C@H]2O)[C@](C)(O)C[C@@H](C)CN(C)[C@H](C)[C@@H](O)[C@]1(C)O ?
4
